Sourced from patent US12588678B2

Recorded measurements of mortality at 10 µg/mL, one per entry
- Tested on: Tetranychus cinnabarinus mite larvae
- EXPERIMENT DESCRIPTION: Larvicidal activity test, dipping method on bean seedling leaves
- Type: in vivo
- ASSAY CONTEXT: Tetranychus cinnabarinus, 96 h, read-out: mortality of mite larvae (%), 10 mg/L; checked after 4 days
- Text: The assay examples are used to illustrate the acaricidal activity against Tetranychus cinnabarinus (mortality of mite larvae and mortality of mite eggs) of the compounds having the structure represented by formula (I), and the results are shown in tables 1 to 9, where mortality of mite larvae % =(number of dead mite larvae applied/total number of mite larvae applied)×100, and mortality of mite eggs %= (number of dead mite eggs applied/total number of mite eggs applied)×100. […]
READOUT NAME: mortality at 10 µg/mL (%)

>  <COMPOUND>
Fc1cccc(F)c1C1=NC(c2ccc(Cn3ccc4ccccc43)cc2)CO1 (stereo not drawn) [Compound R1-15]

>  <SYSTEM>
Tetranychus cinnabarinus mite larvae

>  <RESULT VALUE>
90

$$$$
>  <COMPOUND>
Fc1cccc(F)c1C1=NC(c2ccc(COc3ccc(Cl)cc3)cc2)CO1 (stereo not drawn) [Compound R2-19]

>  <SYSTEM>
Tetranychus cinnabarinus mite larvae

>  <RESULT VALUE>
90

$$$$
>  <COMPOUND>
Fc1cccc(F)c1C1=NC(c2ccc(CN3CCCCCC3)cc2)CO1 (stereo not drawn) [Compound R1-2]

>  <SYSTEM>
Tetranychus cinnabarinus mite larvae

>  <RESULT VALUE>
35

$$$$
>  <COMPOUND>
Fc1cccc(F)c1C1=NC(c2ccc(COCC(F)(F)F)cc2)CO1 (stereo not drawn) [Compound R2-5]

>  <SYSTEM>
Tetranychus cinnabarinus mite larvae

>  <RESULT VALUE>
100

$$$$
>  <COMPOUND>
Cc1ccc2ccn(Cc3ccc(C4COC(c5c(F)cccc5F)=N4)cc3)c2c1 (stereo not drawn) [Compound R1-17]

>  <SYSTEM>
Tetranychus cinnabarinus mite larvae

>  <RESULT VALUE>
40

$$$$
>  <COMPOUND>
FCCOCc1ccc(C2COC(c3c(F)cccc3F)=N2)cc1 (stereo not drawn) [Compound R2-4]

>  <SYSTEM>
Tetranychus cinnabarinus mite larvae

>  <RESULT VALUE>
92

$$$$
>  <COMPOUND>
Fc1cccc(F)c1C1=NC(c2ccc(COc3ccc4ccccc4c3)cc2)CO1 (stereo not drawn) [Compound R2-24]

>  <SYSTEM>
Tetranychus cinnabarinus mite larvae

>  <RESULT VALUE>
100

$$$$
>  <COMPOUND>
CCOc1cc(C(C)(C)C)ccc1C1COC(c2c(F)cccc2F)=N1 (stereo not drawn) [Etoxazole, reference compound]

>  <SYSTEM>
Tetranychus cinnabarinus mite larvae

>  <RESULT VALUE>
90

$$$$
>  <COMPOUND>
Fc1cccc(F)c1C1=NC(c2ccc(COCc3ccco3)cc2)CO1 (stereo not drawn) [Compound R2-10]

>  <SYSTEM>
Tetranychus cinnabarinus mite larvae

>  <RESULT VALUE>
62

$$$$
>  <COMPOUND>
Fc1cccc(F)c1C1=NC(c2ccc(COc3ccc(Br)cc3)cc2)CO1 (stereo not drawn) [Compound R2-20]

>  <SYSTEM>
Tetranychus cinnabarinus mite larvae

>  <RESULT VALUE>
80

$$$$
>  <COMPOUND>
Fc1cccc(F)c1C1=NC(c2ccc(COc3cccnc3)cc2)CO1 (stereo not drawn) [Compound R2-13]

>  <SYSTEM>
Tetranychus cinnabarinus mite larvae

>  <RESULT VALUE>
95

$$$$
>  <COMPOUND>
Fc1cccnc1OCc1ccc(C2COC(c3c(F)cccc3F)=N2)cc1 (stereo not drawn) [Compound R2-15]

>  <SYSTEM>
Tetranychus cinnabarinus mite larvae

>  <RESULT VALUE>
60

$$$$
>  <COMPOUND>
O=S(=O)(Oc1ccc(C2COC(c3c(F)cccc3F)=N2)cc1)c1ccc(F)cc1F (stereo not drawn) [Compound R3-14]

>  <SYSTEM>
Tetranychus cinnabarinus mite larvae

>  <RESULT VALUE>
95

$$$$
>  <COMPOUND>
O=S(=O)(Oc1ccc(C2COC(c3c(F)cccc3F)=N2)cc1)c1ccc(Br)cc1 (stereo not drawn) [Compound R3-9]

>  <SYSTEM>
Tetranychus cinnabarinus mite larvae

>  <RESULT VALUE>
100

$$$$
>  <COMPOUND>
O=S(=O)(Oc1ccc(C2COC(c3c(F)cccc3F)=N2)cc1)c1ccc(Cl)cc1 (stereo not drawn) [Compound R3-8]

>  <SYSTEM>
Tetranychus cinnabarinus mite larvae

>  <RESULT VALUE>
98

$$$$
>  <COMPOUND>
Fc1cccc(F)c1C1=NC(c2ccc(Cn3cccc3)cc2)CO1 (stereo not drawn) [Compound R1-5]

>  <SYSTEM>
Tetranychus cinnabarinus mite larvae

>  <RESULT VALUE>
40

$$$$
>  <COMPOUND>
C#CCCOCc1ccc(C2COC(c3c(F)cccc3F)=N2)cc1 (stereo not drawn) [Compound R2-7]

>  <SYSTEM>
Tetranychus cinnabarinus mite larvae

>  <RESULT VALUE>
90

$$$$
>  <COMPOUND>
Fc1cccc(F)c1C1=NC(c2ccc(COCC3CCCO3)cc2)CO1 (stereo not drawn) [Compound R2-9]

>  <SYSTEM>
Tetranychus cinnabarinus mite larvae

>  <RESULT VALUE>
75

$$$$
>  <COMPOUND>
Fc1cccc(F)c1C1=NC(c2ccc(COCC#Cc3ccccc3)cc2)CO1 (stereo not drawn) [Compound R2-8]

>  <SYSTEM>
Tetranychus cinnabarinus mite larvae

>  <RESULT VALUE>
92

$$$$
>  <COMPOUND>
Fc1cccc(F)c1C1=NC(c2ccc(CN3CCc4ccccc43)cc2)CO1 (stereo not drawn) [Compound R1-14]

>  <SYSTEM>
Tetranychus cinnabarinus mite larvae

>  <RESULT VALUE>
70

$$$$
>  <COMPOUND>
CCS(=O)(=O)Oc1ccc(C2COC(c3c(F)cccc3F)=N2)cc1 (stereo not drawn) [Compound R3-2]

>  <SYSTEM>
Tetranychus cinnabarinus mite larvae

>  <RESULT VALUE>
90

$$$$
>  <COMPOUND>
C=C(C)COCc1ccc(C2COC(c3c(F)cccc3F)=N2)cc1 (stereo not drawn) [Compound R2-6]

>  <SYSTEM>
Tetranychus cinnabarinus mite larvae

>  <RESULT VALUE>
100

$$$$
>  <COMPOUND>
Fc1ccc2ccn(Cc3ccc(C4COC(c5c(F)cccc5F)=N4)cc3)c2c1 (stereo not drawn) [Compound R1-21]

>  <SYSTEM>
Tetranychus cinnabarinus mite larvae

>  <RESULT VALUE>
60

$$$$
>  <COMPOUND>
O=S(=O)(Oc1ccc(C2COC(c3c(F)cccc3F)=N2)cc1)c1ccccc1F (stereo not drawn) [Compound R3-11]

>  <SYSTEM>
Tetranychus cinnabarinus mite larvae

>  <RESULT VALUE>
90

$$$$
